Assay text: H1N1 influenza NS1A inhibitors, functional cell based assay (AID 504329)
Run parameters: percent inhibition, at 12.5 µM, stronger effect = higher value
Screen size: about 340,000 compounds; about 1,000 (0.29%) were called active. A selection follows. Entries with a potency or affinity are not part of this list.
Measure name: inhibition (%)
Respond with the bare value in %.

// `CN(C)CCCNCC(=O)Nc1ccccc1N1CCOCC1` : inhibition value = 5.38

// CCOC(=O)C1=C(c2ccccc2)NC(=O)NC1c1ccc(OCC#N)c(OC)c1 (stereo not given) : inhibition value = 1.47

// `C(=N\Nc1nc2ccccc2[nH]1)/c1ccccn1` : inhibition value = 17.1

// `COc1ccccc1Oc1c(C)oc2c(CN(C)C)c(O)ccc2c1=O` : inhibition value = 12.9

// `N#Cc1ccc(C(=O)Nc2cc(C3CC3)nn2-c2ccccc2)cc1` : inhibition value = -9.27

// `Cc1onc(-c2ccc(Cl)cc2Cl)c1-c1csc(N/N=C/c2ccccc2)n1` : inhibition value = -21.5

// `CCn1c(=O)[nH]c2cc(C(=O)N3CCN(c4ccccc4)CC3)ccc2c1=O` : inhibition value = 5.52

// `CCC(CC)NC(=O)CO/N=C/c1ccc(Cl)cc1Cl` : inhibition value = 2.24

// `CCOC(=O)C1CCN(C2CCN(C(=O)c3oc4c(F)cccc4c3C)CC2)CC1` : inhibition value = -2

// `O=C(c1ccc2ccccc2n1)N1CCN(c2ccccc2)CC1` : inhibition value = -4.44
